# Tested on: PC3M (prostate cancer)
# assay protocol: In vitro antiproliferative MTT assay, PC3M
# Assay type: cell-based
# test parameters: IC50 for human lymphocytes/IC50 for cancer cell line
Form field: SI Lymphocyte/ PC3M (one value per entry).

| compound | assay system | SI Lymphocyte/ PC3M |
| --- | --- | --- |
| COc1cc(C(=O)N/N=C/c2ccc(Cl)cc2)cc(OC)c1OC [Compound 5q] | PC3M (prostate cancer) | 2.10 |
| COc1cc(C(=O)N/N=C/c2cccc(O)c2)cc(OC)c1OC [Compound 5c] | PC3M (prostate cancer) | 0.58 |
| COc1cc(C(=O)N/N=C/c2ccc(O)c(O)c2)cc(OC)c1OC [Compound 5e] | PC3M (prostate cancer) | 0.30 |
| COc1cc(C(=O)N/N=C/c2ccc(O)cc2)cc(OC)c1OC [Compound 5d] | PC3M (prostate cancer) | 2.96 |
| COc1cc(C(=O)N/N=C/c2ccc(-c3ccccc3)cc2)cc(OC)c1OC [Compound 5n] | PC3M (prostate cancer) | 1 |
| COc1cc(C(=O)N/N=C/c2coc3ccccc3c2=O)cc(OC)c1OC [Compound 5j] | PC3M (prostate cancer) | 1 |
| COc1cc(C(=O)N/N=C/c2ccc(C)cc2)cc(OC)c1OC [Compound 5o] | PC3M (prostate cancer) | 0.56 |
| COc1cc(C(=O)N/N=C/c2ccccc2)cc(OC)c1OC [Compound 5b] | PC3M (prostate cancer) | 1.60 |
| COc1cc(/C=N/NC(=O)c2cc(OC)c(OC)c(OC)c2)cc(OC)c1OC [Compound 5i] | PC3M (prostate cancer) | 1 |

###

# System: SF-295 (human glioblastoma)
# assay protocol: In vitro antiproliferative MTT assay, SF-295
# Format: cell-based
# test parameters: Homo sapiens, SF-295; Table 4; read-out: IC50 SF295
Measured IC50, listed per entry.

| compound | IC50 |
| --- | --- |
| O=C(N/N=C/c1ccccc1)c1ccccc1 [Compound 9, (E)-N′-benzylidenebenzohydrazide] | > 25 µM |
| COc1cc(/C=N/NC(=O)c2ccccc2)cc(OC)c1OC | > 25 µM |
| COc1cc(C(=O)N(C)/N=C/c2ccccc2)cc(OC)c1OC | 3.8 µM |
| COc1cc(NC(=O)N/N=C/c2ccccc2)cc(OC)c1OC | > 25 µM |

###

Catalogue of compounds with associated melting point

| compound | melting point |
| --- | --- |
| COc1cc(/C=N/NC(=O)c2cc(OC)c(OC)c(OC)c2)cc(OC)c1OC | 232 °C |
| COc1cc(C(=O)N/N=C/c2cc(C(C)(C)C)c(O)c(C(C)(C)C)c2)cc(OC)c1OC | 222 to 224 °C |
| COc1cc(C(=O)N/N=C/c2ccc(O)c(O)c2)cc(OC)c1OC | 160 °C |
| COc1cc(C(=O)N/N=C/c2ccc(Cl)cc2)cc(OC)c1OC | 187 to 188 °C |
| COc1cc(C(=O)N/N=C/c2ccc(-c3ccccc3)cc2)cc(OC)c1OC | 187 to 188 °C |
| COc1ccc(/C=N/NC(=O)c2cc(OC)c(OC)c(OC)c2)cc1OC | 190 to 191 °C |
| COc1cc(C(=O)N(C)/N=C/c2ccccc2)cc(OC)c1OC | 71 to 73 °C |
| COc1cc(C(=O)N/N=C/c2ccc(O)cc2)cc(OC)c1OC | 189 °C |
| COc1cc(C(=O)N/N=C/c2ccc3c(c2)OCO3)cc(OC)c1OC | 222 to 223 °C |
| COc1cc(C(=O)N/N=C/c2ccc(F)cc2)cc(OC)c1OC | 181 to 182 °C |
| COc1cc(C(=O)N/N=C/c2coc3ccccc3c2=O)cc(OC)c1OC | 205 to 206 °C |
| COc1cc(C(=O)N/N=C/c2cccc(O)c2)cc(OC)c1OC | 227 to 229 °C |
| O=C(N/N=C/c1ccccc1)c1ccccc1 [Compound 9, (E)-N′-benzylidenebenzohydrazide] | 211 to 212 °C |
| COc1cc(NC(=O)N/N=C/c2ccccc2)cc(OC)c1OC | 217 °C |
| COc1cc(/C=N/NC(=O)c2ccccc2)cc(OC)c1OC | 211 to 212 °C |
